# % inhibition of farnesyltransferase at 1 × 10^-6 M listing for each entry below
Target: protein farnesyltransferase (Rattus norvegicus, UniProt Q02293+Q04631)
Construct: The enzyme is purified according to Reiss, Y., et al., Cell, 62: 81-88 (1990), utilizing steps one through three; from tissue; host or cells: rat brain
Experiment: Inhibition of farnesyltransferase (scintillation proximity assay, rat brain enzyme, biotin-K Ras B fragment substrate)
Type: biochemical
Conditions: 1 × 10^-6 M (Table 2)
Protocol: The ability of the compounds of the invention to inhibit protein farnesyltransferase or protein geranylgeranyltransferase can be measured according to the method of Moores, et al., J. Biol. Chem. 266: 14603 (1991) or the method of Vogt, et al., J. Biol. Chem. 270:660-664 (1995). […] In addition, in vitro inhibition of protein farnesyltransferase may be measured by the following procedure. […] The % inhibition of protein farnesyltransferase was determined for representative compounds of the invention.
Value expressed in %; do not type the unit.

CSCC[C@H](NC(=O)c1ccc(CN[C@H](/C=C\CC(C)C)CC2CCCCC2)cc1-c1ccccc1)C(=O)O [Example 666]    82

Which % inhibition of farnesyltransferase at 1 × 10^-6 M is listed for CSCC[C@H](NC(=O)c1ccc(OC/C=C/c2ccccc2)cc1-c1ccccc1C)C(=O)O [Example 560] ?
91

Which % inhibition of farnesyltransferase at 1 × 10^-6 M is listed for CSCC[C@H](NC(=O)c1ccc(CNc2cccc(C(N)=O)c2)cc1-c1ccccc1)C(=O)O [Example 682] ?
31

Which % inhibition of farnesyltransferase at 1 × 10^-6 M is listed for CSCC[C@H](NC(=O)c1cc(Cc2ccccc2)c(COCc2ccco2)cc1-c1ccccc1C)C(=O)O [Example 924] ?
77

Which % inhibition of farnesyltransferase at 1 × 10^-6 M is listed for CSCC[C@H](NC(=O)c1ccc(COCc2ccccc2C)cc1-c1ccccc1C)C(=O)[O-].[Li+] [Example 577] ?
94

Which % inhibition of farnesyltransferase at 1 × 10^-6 M is listed for CSCC[C@H](NC(=O)c1ccc(CN(Cc2ccoc2)C(C)C)cc1-c1ccccc1C)C(=O)O [Example 832] ?
80
